Please provide measured pEC50 for the entries that follow.
target_or_system: T1, human Claudin18.2 (human)
T1 construct: also called CLDN18.2
test_summary: FACS, Claudin18.2-HEK293 cells
Please keep in mind that pEC50 is minus log10 of the molar concentration; only the number is needed.

(Q) What pEC50 value was documented for this binder, chimeric 260G9E8 (antibody, human IgG1, kappa, V domains shown, chimeric, human IgG1/kappa constant regions) VH: QADLQQSGAELVRSGASVKMSCKASGYTFASHNMHWVKQTPGQGLEWIGYIYPGNGGTKYNQKFTGKATLTADTSSSTAYMQITSLTSEDSAVYFCARDYYGNSFAYWGQGTLVTVSA VL: DIVMTQSPSSLTEKAGEKVSMRCKSSQSLLNSGNQKNYLTWYQQKPGQPPKLLIYWASTRESGVPDRFTGSGSGTDFTLTISSVQADDLAVYYCQNDYMFPFTFGAGTKLELKR ?
(A) 8.98

(Q) What value of pEC50 has been reported for the following binder? chimeric 262C7C10 (antibody, human IgG1, kappa, V domains shown, chimeric, human IgG1/kappa constant regions) VH: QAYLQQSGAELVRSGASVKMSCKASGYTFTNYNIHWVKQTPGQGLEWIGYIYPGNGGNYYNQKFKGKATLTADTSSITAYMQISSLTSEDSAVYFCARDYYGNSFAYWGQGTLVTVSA VL: DIVMTQSPSSLTVTAGEKVTMNCKSSQSLLNSGNQKNYLTWYQQKPGQPPKLLIYWASTRESGVPDRFTGSGSGTDFTLTISSVQAEDLAIYYCQNDYYYPLTFGAGTKLELKR
(A) 8.93

(Q) If you can, please state the reported pEC50 value of chimeric 194D3B2 (antibody, human IgG1, kappa, V domains shown, chimeric, human IgG1/kappa constant regions) VH: QAYLQQSGAELVRSGASVKMSCKASGYPFTSYNMHWVKQTPGQGLEWVGYIYPGNGGTNYNQKFRDKATLTADTSSSTAYMQISRLTSDDSAVYFCLTGRGFAYWGQGTLVTVSA VL: DIVMTQSPSSLIVTPGERVTMSCKSSQSLLNSGNQKNYLTWYQQKPGQPPKLLIYRASTRESGVPDRFTGSGSGTDFTLTISSVQAEDLAVYYCQNDYSYPLTFGIGTKLELKR .
(A) 9.10
